Ref: patent US20070202552A1

- Experimental system: T1, human HER-2 extracellular domain (HER-2 ECD) (human, UniProt P04626 23-646)
- T1 construct: range 23-646; also called erbB2; HER2 protein
- Assay protocol: competitive Fab-phage ELISA
Test readout: IC50 (nM)
Answers are plain numbers, in nM.

Clone G54 (SX-surface), purified soluble Fab (Fab, V domains shown, Tyrosine-containing clone) VH: EVQLVESGGGLVQPGGSLRLSCAASGFSISSSYIHWVRQAPGKGLEWVASIYPYSGYTSYADSVKGRFTISADTSKNTAYLQMNSLRAEDTAVYYCARYYSYALDYWGQGTLVTVSS VL: DIQMTQSPSSLSASVGDRVTITCRASQDVNTAVAWYQQKPGKAPKLLIYSASSLYSGVPSRFSGSRSGTDFTLTISSLQPEDFATYYCQQSYYYPSTFGQGTKVEIK :: 2.44

Consider the additional binder presented here.
QUERY: Reported IC50, binder G34 (Fab, V domains shown) VH: EVQLVESGGGLVQPGGSLRLSCAASGFSIWWSWIHWVRQAPGKGLEWVASISPSSGWTSYADSVKGRFTISADTSKNTAYLQMNSLRAEDTAVYYCARWWSSAFDYWGQGTLVTVSS VL: DIQMTQSPSSLSASVGDRVTITCRASQDVNTAVAWYQQKPGKAPKLLIYSASSLYSGVPSRFSGSRSGTDFTLTISSLQPEDFATYYCQQSWWWPSTFGQGTKVEIK : ____
RESULT: 1.06
